The values you see were collected from the NIST ThermoML archive (doi:10.1016/j.tca.2016.02.008).

Details: Crystal; DTA
result type: Normal melting temperature (°C)
Answers are plain numbers, in °C.

>>> assay_result("CCCCCCCCCCCCCCCC(=O)O")
63.10
>>> assay_result("CCCCC/C=C\\C/C=C\\CCCCCCCC(=O)O [(Z,Z)-9,12-octadecadienoic acid]")
-5.40
>>> assay_result("CC/C=C\\C/C=C\\C/C=C\\CCCCCCCC(=O)O [all-cis-9,12,15-octadecatrienoic acid]")
-10.90

What does the record list as Normal melting temperature for "CCCCCCCCCCCCCCCCCC(=O)O" ?
70.60

---

Field: Molar enthalpy of transition or fusion. Provide a value for each of the compounds that follow.
Experiment: Molar enthalpy of transition or fusion
Conditions: Crystal; DSC
One number for each entry, in kcal/mol.

>>> assay_result("CCCCC/C=C\\C/C=C\\CCCCCCCC(=O)O [(Z,Z)-9,12-octadecadienoic acid]")
7.46

Hello, I would appreciate it if you could give Molar enthalpy of transition or fusion for each entry below.
1. CC/C=C\C/C=C\C/C=C\CCCCCCCC(=O)O [all-cis-9,12,15-octadecatrienoic acid]
2. CCCCCCCCCCCCCCCC(=O)O
3. CCCCCCCCCCCCCCCCCC(=O)O

6.99
12.9
15.1
